- Test system: Staphylococcus epidermidis ATCC 12228
- Measurement notes: ≥ marks a high value that may be exact or a test limit, other limits are often not marked, values filed in µg/mL are converted to µM
Measured metric: MIC (µM)
Reply with just the number (in µM).

See these solved cases before continuing.
{"Compound structure string": "CC(C)C[C@H](NC(=O)[C@H](CCCCN)NC(=O)[C@H](C)NC(=O)[C@H](CC(C)C)NC(=O)[C@H](CCCCN)NC(=O)[C@H](CCCCN)NC(=O)[C@H](C)NC(=O)[C@H](CC(C)C)NC(=O)[C@H](CCCCN)NC(=O)[C@H](C)NC(=O)[C@H](CC(C)C)NC(=O)[C@H](CCCCN)NC(=O)[C@H](Cc1cnc[nH]1)NC(=O)CNC(=O)CN)C(=O)N[C@@H](C)C(=O)N[C@@H](CCCCN)C(N)=O", "MIC [µM]": 1}
{"Compound structure string": "CC(C)C[C@H](NC(=O)[C@H](CCCNC(=N)N)NC(=O)CNC(=O)CNC(=O)[C@@H](N)CCCNC(=N)N)C(=O)N[C@@H](CS)C(=O)N[C@@H](Cc1ccc(O)cc1)C(=O)N[C@@H](CS)C(=O)N[C@@H](CCCNC(=N)N)C(=O)N[C@@H](CCCNC(=N)N)C(=O)N[C@@H](CCCNC(=N)N)C(=O)N[C@@H](Cc1ccccc1)C(=O)N[C@@H](CS)C(=O)N[C@H](C(=O)N[C@@H](CS)C(=O)N[C@H](C(=O)NCC(=O)N[C@@H](CCCNC(=N)N)C(N)=O)C(C)C)C(C)C", "MIC [µM]": 16}
{"Compound structure string": "CC[C@H](C)[C@H](N)C(=O)N[C@@H](Cc1cnc[nH]1)C(=O)N[C@@H](CCCCN)C(=O)N[C@@H](Cc1ccccc1)C(=O)N[C@@H](Cc1c[nH]c2ccccc12)C(=O)N[C@@H](CCCN=C(N)N)C(=O)N1CCC[C@H]1C(=O)NCC(=O)N[C@@H](CCCN=C(N)N)C(=O)N[C@@H](Cc1c[nH]c2ccccc12)C(=O)N[C@@H](Cc1ccccc1)C(=O)N[C@@H](CCCCN)C(=O)N[C@@H](Cc1cnc[nH]1)C(=O)N[C@H](C(N)=O)[C@@H](C)CC", "MIC [µM]": 16}

Ask: Answer with the recorded MIC of `CC(C)C[C@H](NC(=O)[C@H](Cc1c[nH]c2ccccc12)NC(=O)[C@H](CCCN=C(N)N)NC(=O)[C@H](Cc1c[nH]c2ccccc12)NC(=O)[C@H](Cc1c[nH]c2ccccc12)NC(=O)[C@H](Cc1c[nH]c2ccccc12)NC(=O)[C@H](CCCN=C(N)N)NC(=O)[C@H](Cc1c[nH]c2ccccc12)NC(=O)[C@@H](N)CC(C)C)C(N)=O` only.
Reply: 4

Ask: Complete the entry with MIC for `CC[C@H](C)[C@H](NC(=O)[C@H](Cc1c[nH]c2ccccc12)NC(=O)[C@H](CCCCN)NC(=O)[C@H](CC(C)C)NC(=O)[C@@H](NC(=O)[C@H](Cc1c[nH]c2ccccc12)NC(=O)CNC(=O)[C@@H](NC(=O)[C@H](CCCCN)NC(=O)[C@H](Cc1c[nH]c2ccccc12)NC(=O)[C@H](CC(C)C)NC(=O)[C@@H](N)CCCN=C(N)N)[C@@H](C)CC)C(C)C)C(N)=O`
Reply: 16

Hey, just so you know, these numbers are from DBAASP.
